Tested on: MES-SA/Dx5 cells
Assay: MTT viability assay, MES-SA/Dx5
Assay type: cell-based, human
Conditions: Table 2, value outside brackets
recorded.endpoint: SR MES-SA/Dx5 (Table 2)

molecule: Oc1c(CN2CCOCC2)cc(Cl)c2cccnc12 [Compound 5-Cl-Q-2]
SR MES-SA/Dx5 (Table 2): 2.19
//
molecule: Oc1c(CNCc2ccccc2F)cc(Cl)c2cccnc12 [Compound Q-4]
SR MES-SA/Dx5 (Table 2): 13.68
//
molecule: Oc1c(CN2CCCCC2)ccc2cccnc12 [Compound Q-3, 7-(piperidin-1-ylmethyl)quinolin-8-ol]
SR MES-SA/Dx5 (Table 2): 4.75
//
molecule: Oc1c(CN2CCCCC2)ccc2ccccc12 [NC-3, 2-(piperidin-1-ylmethyl)naphthalen-1-ol]
SR MES-SA/Dx5 (Table 2): 0.86

Below is a list of molecules. For each, state its recorded SR MES-SA/Dx5 (Table 2).
1. Oc1ccc(Cl)c2cccnc12 [Compound 5-Cl-Q-1]
2. Oc1c(CNCc2ccccc2F)ccc2ccccc12 [NC-4]
3. Oc1c(CN2CCCCC2)cc(Cl)c2cccnc12 [Compound 5-Cl-Q-3]
4. Oc1c(CN2CCOCC2)ccc2cccnc12 [Compound Q-2, 7-(morpho-lino-methyl)quinolin-8-ol]
5. Oc1c(CN2CCOCC2)ccc2ccccc12 [NC-2, 2-(morpholino-methyl)naphthalen-1-ol]
6. Oc1cccc2cccnc12 [Compound Q-1, 8-Hydroxyquinoline]

[1.08, 1.44, 8.40, 2.13, 0.75, 1.70]

Data provenance is paper PMC7796460.
